- System: NCI/ADR-RES
- ASSAY PROTOCOL: NCI tumour cell line growth inhibition, 48 h
Active and inactive are the calls of the source. No stated cut-off is given here; in the data, active = GI50 up to about 1.1 µM and inactive = higher.
METRIC: GI50

INSERT INTO assay_data (molecule, result) VALUES
  ('CCOC(=O)N1C(=S)C(C(=O)OC)(C(=O)OC)N=C1C', '> 100 µM (inactive)'),
  ('CC(NC(=O)OC(C)(C)C)C(=O)NC1CCCC1 (configuration not stated)', '> 100 µM (inactive)'),
  ('CCCCCC(O)C1C(=O)OC(C)C(O)/C=C/C=C/C=C/C=C/C=C(\C)C(O)C(O)C(O)CC(O)CC(O)CC(O)CC(O)CC1O (configuration not stated)', '1.51 µM (inactive)'),
  ('CCN(CC)CCNc1n[n+]([O-])c2cc([N+](=O)[O-])ccc2[n+]1[O-]', '1.27 µM (inactive)'),
  ('CCN1c2ccccc2-n2c(C)nnc2-c2c(-c3ccccc3)n[nH]c21', '11.9 µM (inactive)'),
  ('O=C(CBr)N1CCC2(CC1)SSC1(CCN(C(=O)CBr)CC1)S2', '1.97 µM (inactive)'),
  ('O=C(O)c1cc(-c2ccc3c(O)ccc(O)c3c2)ccc1O', '28.1 µM (inactive)'),
  ('CC(C)=CC1C(C(=O)OCc2cc3c(cc2Cl)OCO3)C1(C)C (configuration not stated)', '42.8 µM (inactive)'),
  ('CC(=O)OC12c3ccccc3-c3ccccc3C1C(C(=O)O)C2C(=O)O (configuration not stated)', '> 10 µM (inactive)'),
  ('CC(=O)OCc1cncn1S(=O)(=O)c1ccc(C)cc1', '> 55.5 µM (inactive)'),
  ('CCCCCCCCCCCCCCCCCCOCC(O)COP(=O)(O)OCC1OC(n2ccc(N)nc2=O)C(O)C1O (configuration not stated)', '19.1 µM (inactive)'),
  ('CC1(C)CN(c2ccccc2)C(=O)C1OC(=O)[C@@]1(C)C[C@@H]2C=C[C@H]1C2 (some centres not stated)', '23 µM (inactive)');

###

- System: SNB-19
- ASSAY PROTOCOL: NCI tumour cell line growth inhibition, 48 h
Activity calls are given as the source filed them. No stated cut-off is given here; in the data, active = GI50 up to about 1.1 µM and inactive = higher.
Reported values of GI50 for individual entries
METRIC: GI50

INSERT INTO measurements (compound, measurement_target, metric, result) VALUES
  ('C[n+]1c(-c2ccc(/C=N\Nc3ccnc(N/N=C/c4ccc(-c5cn6ccsc6[n+]5C)cc4)n3)cc2)cn2ccsc21', 'SNB-19', 'GI50', '37.6 µM (inactive)'),
  ('COC1(OC)CCCCCCCCC(OC)(OC)CCCCCCCC1', 'SNB-19', 'GI50', '> 100 µM (inactive)'),
  ('N=C(N)SCc1ccc(N=C=S)cc1', 'SNB-19', 'GI50', '13.8 µM (inactive)'),
  ('O=C1OC(c2ccc([N+](=O)[O-])cc2)=N/C1=C\c1ccc(O)cc1', 'SNB-19', 'GI50', '> 100 µM (inactive)'),
  ('O=P(O)(O)C(N=C(Nc1ccccc1)Nc1ccccc1)P(=O)(O)O', 'SNB-19', 'GI50', '> 100 µM (inactive)'),
  ('Cc1cc(N(CCOS(C)(=O)=O)CCOS(C)(=O)=O)ccc1/C=N/c1ccc(-c2csc(-c3ccc(Br)cc3)n2)cc1', 'SNB-19', 'GI50', '19.4 µM (inactive)'),
  ('CCP(=O)(CC)C(Cl)(Cl)C(O)C(Cl)(Cl)Cl (configuration not stated)', 'SNB-19', 'GI50', '> 100 µM (inactive)');

###

- Test system: SF-268
- ASSAY PROTOCOL: NCI tumour cell line growth inhibition, 48 h
The source made the active and inactive calls. Rule as the data show it: active = GI50 up to about 1.1 µM and inactive = higher.
METRIC: GI50

INSERT INTO assay_data (compound, result) VALUES
  ('O=C1NC(=O)[C@H]2C3C=CC([C@@H]12)[C@@H]1C(=O)NC(=O)[C@H]31', '> 100 µM (inactive)'),
  ('CCN(CC)CCOC(=O)/C(=C/c1ccc(OC)cc1)c1cc(OC)c(OC)c(OC)c1', '5.45 µM (inactive)'),
  ('COc1ccc(CSCc2cc(OC)c(OC)c(OC)c2)cc1', '> 100 µM (inactive)'),
  ('CCC1(c2ccncc2)CCC(=O)NC1=O (stereo unspecified) [ROGLETIMIDE]', '> 100 µM (inactive)'),
  ('O=C1c2ccccc2C(=O)c2sc(Nc3ccc(Cl)c(Cl)c3)nc21', '4.97 µM (inactive)'),
  ('CC1(C)C(c2ccccc2)C12CCC1(C2=O)C(c2ccccc2)C1(C)C (stereo unspecified)', '29.4 µM (inactive)'),
  ('Cc1ccc(Nc2nc3ccccc3c(=O)n2N)cc1', '> 100 µM (inactive)'),
  ('COc1ccccc1/C=C1\CCC(Cc2ccccc2)(CN(C)C)C1=O (stereo unspecified)', '4.85 µM (inactive)'),
  ('COc1cc2cccc(N)c2cc1OC', '> 100 µM (inactive)'),
  ('O=C(N/C(=C\NC1=NCCS1)C(=O)N1CSC[C@@H]1C(=O)O)c1ccccc1', '> 100 µM (inactive)'),
  ('COc1ccc(-c2nc3cc(C(F)(F)F)ccc3n2CC2CCCN3CCCCC23)cc1 (stereo unspecified)', '15.3 µM (inactive)'),
  ('O=[N+]([O-])C(=C(Nc1ccccc1)Nc1ccccc1)C(Cl)=C(Cl)Cl', '18.7 µM (inactive)'),
  ('Nc1nc2ncn(CCO)c2c(=S)[nH]1', '> 100 µM (inactive)'),
  ('Cc1coc2c1CC1(C)C(CCC(O)C1C)C2 (stereo unspecified)', '> 100 µM (inactive)'),
  ('CSC1NNC2(C(=O)N1)c1ccccc1-c1ccccc12 (stereo unspecified)', '> 10 µM (inactive)'),
  ('O=C(/C=C/c1ccccc1O)c1cccc2ccccc12', '48.8 µM (inactive)');

###

- Test system: CCRF-CEM
- ASSAY PROTOCOL: NCI tumour cell line growth inhibition, 48 h
The source made the active and inactive calls. Cut-off read from the data, not from the text of the source: active = GI50 up to about 1.1 µM and inactive = higher.
Reported values of GI50 for individual entries
METRIC: GI50

INSERT INTO results (molecule, metric, result) VALUES
  ('C=C(C)C1=CCC[C@]2(C1)N=C(OC)[C@@H](C(C)C)N=C2OC', 'GI50', '34.3 µM (inactive)'),
  ('C/C(=C/CC[C@](C)(OC1OC(CO)C(O)C(O)C1O)[C@H]1CC[C@]2(C)[C@@H]1CC[C@@H]1[C@@]3(C)CC[C@H](O)C(C)(C)[C@@H]3C[C@H](O)[C@]12CO)CO (stereo partly drawn)', 'GI50', '> 100 µM (inactive)'),
  ('c1ccc(CCN2CCc3[nH]c4ccccc4c3C2)cc1', 'GI50', '32.6 µM (inactive)'),
  ('COc1ccc(-c2nc3cc(C(F)(F)F)ccc3n2CC2CCCN3CCCCC23)cc1 (stereo not drawn)', 'GI50', '13.6 µM (inactive)'),
  ('Cc1coc2c1CC1(C)C(CCC(O)C1C)C2 (stereo not drawn)', 'GI50', '> 100 µM (inactive)'),
  ('O=P1(Oc2ccccc2)N(CCCl)CCN1c1ccccc1 (stereo not drawn)', 'GI50', '> 100 µM (inactive)'),
  ('CC1=C(C(=O)Nc2ccccc2C)C(c2ccc([N+](=O)[O-])cc2)C(C(=O)Nc2ccccc2C)=C(C)N1', 'GI50', '27.2 µM (inactive)'),
  ('CN(C)CCNC(=O)c1cccc2ncc(-c3ccccc3)nc12', 'GI50', '8.99 µM (inactive)'),
  ('O=C(Nc1ccc(Cl)cc1)NS(=O)(=O)c1ccc2c(c1)CCC2', 'GI50', '29.9 µM (inactive)'),
  ('ON=C1CCC(c2ccccc2)CC1 (stereo not drawn)', 'GI50', '> 100 µM (inactive)'),
  ('Cc1ccc(/N=C2\SC(=NN(C)C)S\C2=N/c2ccc(C)cc2)cc1', 'GI50', '> 100 µM (inactive)'),
  ('CCC(=O)N1C(=S)SC[C@H]1C(=O)OC', 'GI50', '69.2 µM (inactive)'),
  ('c1ccc(CN2CCN3CCN(CC2)CCN(Cc2ccccc2)CC3)cc1', 'GI50', '6.37 µM (inactive)');

###

Reported values of GI50 for individual entries
- Test system: MCF7
- ASSAY PROTOCOL: NCI tumour cell line growth inhibition, 48 h
The source made the active and inactive calls. No stated cut-off is given here; in the data, active = GI50 up to about 1.1 µM and inactive = higher.
METRIC: GI50

INSERT INTO measurements (compound, measurement_target, result) VALUES
  ('O=C(Nc1ccccc1C(=O)NCCCO)/C(=C/c1ccccc1O)NC(=O)c1ccccc1', 'MCF7', '5.36 µM (inactive)'),
  ('COc1ccc(-c2nc3cc(C(F)(F)F)ccc3n2CC2CCCN3CCCCC23)cc1 (centres undefined)', 'MCF7', '13.2 µM (inactive)'),
  ('Cc1c(C)c2c(c(N)c1C#N)C(=O)N(NC(=O)c1ccccc1)C2=O', 'MCF7', '> 100 µM (inactive)'),
  ('Cc1cc(Cc2cc(C)c(NC(=O)C(=O)C3CCC4=C(SC5C=CC=CC5N4)C3=O)c(C(C)C)c2)cc(C(C)C)c1NC(=O)C(=O)C1CCC2=C(SC3C=CC=CC3N2)C1=O (centres undefined)', 'MCF7', '62.5 µM (inactive)');
